Hey, just so you know, these numbers are from the supplement of paper PMC9170038.

# System: MS2 coat protein
# Test summary: apparent KD of MS2 coat protein; higher = weaker reporter binding
# Details: Eterna round: R107; input ligand: theophylline 20 uM
Attribute measured: apparent KD of MS2 coat protein

apparent KD of MS2 coat protein for GGUAGACGGACGGCCGCCACUCACAUGAGGAUCACCCAUGUAUAGUUGGUAAUCUGGGUUCAGGAGAGGACCGGGUCCUUGUCAG [theeternabot_exclusion_MS2_Trp_B_43] is 23.2 nM

apparent KD of MS2 coat protein recorded for this sequence, CAGGUCAGGGCGGCCGCCACUGUGGCUACGGUACAUGAGGAUCACCCAUGUUUGUGGUUGAUCUACAGGACCGGGCCCUAACACG [Beabe] , is 214 nM

Please fill in: apparent KD of MS2 coat protein reported for GAUUUUACAAAAGUAAAAUCAGUGGGUGAACGAGGACCGGUACGGCCGCCACUCGGACAUGAGGAUCACCCAUGUCCAUGUGAAA [AstrosExyTryA#21] = 18.4 nM

Entry under test: GGACAUGCAGGAAGGAGCGACACGCAGAAACUGCAAAAUCCUCCACACGAGGAUCACCCGUGUCAGGUAGGUCGCCUGCAUGUCG [ArgXB 15 #Zipper #MS2Left #StaticStem #Blueprint] . Its apparent KD of MS2 coat protein was 140 nM

Lookup result for CGUAUUGGAAACAGUACGAGUGAUCCGGUCCGAGGACCGGUACGGCCGCCACUCGAUAUAAAUAAACAUGAGGAUCACCCAUGUA [Ex Tryptophan A 12] ; measured apparent KD of MS2 coat protein: 16.9 nM

Looking up CGGCCCUCACUUGAGGAACACCCAAGUGAUACCAGCCUGGAAACAGGCCCUUGGCAGCACUAGGUCAUCAAAGAUGACCAAGCCG [TheoAX 29 #OpenEnded #AlternativeMS2] , I found its apparent KD of MS2 coat protein recorded as 42.8 nM

====

So I've got a bunch of sequences here, and I need their apparent KD of MS2 coat protein values.
# System: MS2 coat protein
# Test summary: apparent KD of MS2 coat protein; designed switch direction (-1 OFF switch, 1 ON switch): -1; higher = weaker reporter binding
# Details: input ligand: FMN 200 uM
A number alone suffices; assume nM.

# sequence UGAGUGCUGCGAGGAUAUACAUGAGGAUCACCCAUGUUUUCCUGUGAGGCAUAGCCUCACAGGAUGUAGAAGGCGCAGUACUCU [Mat - Exclusion NG 2 - Mod of JL - D28] (Eterna round: R96, puzzle: Exclusion NG 2) ; its apparent KD of MS2 coat protein = 10.6

Lookup result for GCACUGGCAGGAUAUACAUGAGGAUCACCCAUGUGAUCCCUUAGGUACAAAAGUACUAGUAGAAGGGCCUGUGC [Omei Ex3 Model Bachelor's Dilema v48] (Eterna round: R97, puzzle: Exclusion 3) ; measured apparent KD of MS2 coat protein: 294

Lab book: apparent KD of MS2 coat protein of AGCUGACGAGGAUAUACAUGAGGAUCACCCAUGUUGGUCAAGCGACUUCGGUCGCAAUGUAGAAGGCGUCAGCU [E3/8-A4] (Eterna round: R97, puzzle: Exclusion 3) noted as 263

====

# Test system: MS2 coat protein
# Test summary: apparent KD of MS2 coat protein; higher = weaker reporter binding
# Details: Eterna round: R107; input ligand: arginine 13.2 mM
Classification field: enter y for apparent KD of MS2 coat protein values not below 40 nM, n for values below it.

stdin: Tell me whether apparent KD of MS2 coat protein is at least 40 nM here: UACAUGAGGAUCACCCAUGUAUAACCGGUACGAGGACCGGUACGGCCGCCACUCGAAACAUGAGGAUCACCCAUGUGCUACUAUU [Same State Trypophan A GF 22]
stdout: n

stdin: Evaluate AUUAACUGGUAAGAUACCAGAGUCGGGAUCUACAUGAGGAUCACCCAUGUUCUAAAGUCGCUCCCUUGGCAGCUUCAAUGAGUCG [theeternabot_sameState_MS2_Theo_B_27] : apparent KD of MS2 coat protein at minimum 40 nM?
stdout: n

stdin: Is apparent KD of MS2 coat protein at least 40 nM? Consider UACAUGAGGAUCACCCAUGUAUACAUGGAUACCAGCGACAAUGGGCGCCCUUGGCAGCUAGUGGAUGGAGGGUGGCCACAGUACU [Exclusion Theophyline A GF5]
stdout: n

stdin: Quick check: does GCUGCUUUGGGAAGGAGCGCUGCGGUAUUGUGGCGGACAUGAGGAUCACCCAUGUGCCUGCAGCAGGUAGGUCGCUUAGGGCAGC [EAP NP+V+V2 #17] have apparent KD of MS2 coat protein greater than or equal to 40 nM?
stdout: y

====

# Tested on: MS2 coat protein
# Test summary: apparent KD of MS2 coat protein; designed switch direction (-1 OFF switch, 1 ON switch): 1; higher = weaker reporter binding
# Details: input ligand: microRNA oligo, concentration not stated
Grouping rule (apparent KD of MS2 coat protein): class 1: < 50 nM; class 2: ≥ 50 nM and < 200 nM; class 3: ≥ 200 nM

stdin: Category of GGUAGGUUACUACCAAACAUGAGGAUCACCCAUGUAAGUGGGAAGGAUAUGGUACCUAAAAGGUACCAGAAGGUCCAUAUAGUU [Mat - Same State NG 3 - JL Mod - D99] (Eterna round: R96, puzzle: Same State NG 3) , please.
stdout: class 3

stdin: Hi, small favor: classify UUGUAUCGAAAAGGAUAUCAUGGGCAACGGUACUGAGAAGGUUUCGAGCUCGAACGAGCAACAUGAGGAUCACCCAUGUCCGAG [Eternabot solution 50] (Eterna round: R96, puzzle: Same State NG 1) by its apparent KD of MS2 coat protein when you get a moment.
stdout: class 3

stdin: Please classify: CCGCCGGGAACCCGGCGGAAACAUGAGGAUCACCCAUGUACACAGGAUAUCGUGACAUUAACAAACGAGAAGGGUGGCCGAGAC [Atre] (Eterna round: R96, puzzle: Same State NG 3)
stdout: class 2

stdin: Lab log: AAAAUAAGCCCUUGCACAUGAGGAUCACCCAUGUUCGGUUCACAGGAUAUCUAGUCAAACGGGCUGGAGAAGGGUGGCAAGGAC [Xequusceus] (Eterna round: R96, puzzle: Same State NG 3) — assign apparent KD of MS2 coat protein category
stdout: class 3

stdin: Lab note: which band did AUUAUUAAUGCAGGAUAUGAUUAACAUGAGGAUCACCCAUGUGGUGUUGUGAGUAAGGAGAGUGAUCAGAAGGGCAUUUUUUUG [JMF's solution 19] (Eterna round: R96, puzzle: Same State NG 2) land in?
stdout: class 3

stdin: Pick a category. Item: AGCUAGUACCGAGGAUAUACAUACAUGAGGAUCACCCAUGUAUACAUGAACAAUUGAGACUACAUGUAGAAGGCGGUACUAGCA [JL SSNG2 1.19] (Eterna round: R96, puzzle: Same State NG 2)
stdout: class 1

stdin: Band for GGAGCCAAGGCAGGAUAUUCAUAUUAAAUAACAUGAGGAUCACCCAUGUUGGCCAGAAGGCCAUGGGAGAAGGGCCAUGGCUCG [Xeonanis - 13 mod22] (Eterna round: R96, puzzle: Same State NG 2) ?
stdout: class 2

stdin: Which class holds GAAAAGACAUGAGGAUCACCCAUGUGGUAGACAGCUAGACGCAAGGAUAUGCAUGUGAUUCUCAUGCAGAAGGUGCUUCUAGGU [Eternabot solution 12] (Eterna round: R96, puzzle: Same State NG 3) ?
stdout: class 2

stdin: # classify by apparent KD of MS2 coat protein band: GCUACCAUUGAUGCCUACAUGAGGAUCACCCAUGUAUGUAGGCAGGAUAUCGAUUGCUUUGCGAUCGAGAAGGGCUUAGGUAGC [JL SSNG3 1.31] (Eterna round: R96, puzzle: Same State NG 3)
stdout: class 2

stdin: Band of AGCUAUUACGAAGGAUAUUGUGACAUGAGGAUCACCCAUGUUUACAUGAUUAAUUGUGAUCACGUCGAGAAGGUUGUACUAACA [SameState NG2 #32] (Eterna round: R96, puzzle: Same State NG 2) ?
stdout: class 1

stdin: Class label required: GGUAGGUUACUACCAAUACAUGAGGAUCACCCAUGUUGUCAUGAGGAUAUGGUACCUAUUUGGUACCAGAAGGCAUGUAUAAUU [Fiskers NG3ss - 20] (Eterna round: R96, puzzle: Same State NG 3)
stdout: class 2

stdin: Where would GAGUGGCAGUUAGGAUAUAUAGUGAUAAUCACAGUAGAAGGAACUGACAUGAGGAUCACCCAUGUAGGACUAAUCCAGAGAGAG [Parity 41 - Jieux - Same State NG 1] (Eterna round: R96, puzzle: Same State NG 1) land among the classes by reported apparent KD of MS2 coat protein?
stdout: class 1

stdin: Category of AGAUCAUGACGAGGAUAUCCGACAUGAGGAUCACCCAUGUAUGUCGGAGGACGGAAACGUCCAAAGGAGAAGGCGUCGUGGUCA [Mat - Same State NG 2 - JL mod - D37] (Eterna round: R96, puzzle: Same State NG 2) , please.
stdout: class 2

stdin: Determine which band this sequence sits in: GGAUGAUUAACAGGAUAUCAUUUGUAAAUUGGUUGAGAAGGGUUAAUGAUUUAAACGACCUGUUACAUGAGGAUCACCCAUGUU [SameState NG1 #1] (Eterna round: R96, puzzle: Same State NG 1)
stdout: class 1

stdin: Hi there! Could you help me figure out the category for GUUACAUGAGGAUCACCCAUGUAUGUGUGGGAGUAAGUGUCUUAGGAUAUCUAUGAUUUAGUUUAAGAGAAGGAAGAUUGUUGU [JMF's solution 79] (Eterna round: R96, puzzle: Same State NG 3) please?
stdout: class 2

stdin: Given GUUACAUGAGGAUCACCCAUGUAUGUGUGGGAGUAAGUGUCUUAGGAUAUCUAUCAUUGAAUUUAAGAGAAGGAAGAUUGUUGU [JMF's solution 92] (Eterna round: R96, puzzle: Same State NG 3) , name the class its apparent KD of MS2 coat protein places it in.
stdout: class 2
